test system: P12-Ichikawa; assay: cell viability relative to DMSO control; higher = less cytotoxic; conditions: HPLM + 10% dialyzed FBS; 48 h; 0.00234 µM
readout_type: cell viability (%)

INSERT INTO assay_data (compound, measured_on, observed) VALUES
  ('CC1=C(/C=C/C(C)=C/C=C/C(C)=C/C(=O)Nc2ccc(O)cc2)C(C)(C)CCC1', 'P12-Ichikawa', 83.4),
  ('O=P(O)(O)C(O)(Cc1cccnc1)P(=O)(O)[O][Na] (stereo not drawn)', 'P12-Ichikawa', 81.8),
  ('CCOC(=O)c1ccc(C#Cc2ccc3c(c2)C(C)(C)CCS3)nc1', 'P12-Ichikawa', 108),
  ('COc1ccc2cc(-c3[nH]c(-c4ccc([S+](C)[O-])cc4)nc3-c3ccncc3)ccc2c1 (stereo not drawn)', 'P12-Ichikawa', 114),
  ('CC1=C2N=C([NH]C2=CC(=C1)N3CCOCC3)\C4=C(NC[C@@H](O)C5=CC=CC(=C5)Cl)\C=C/NC4=O', 'P12-Ichikawa', 104),
  ('CCCCc1oc2ccc(NS(C)(=O)=O)cc2c1C(=O)c1ccc(OCCCN(CCCC)CCCC)cc1', 'P12-Ichikawa', 99),
  ('O=C(Oc1ccc([N+](=O)[O-])cc1)N1CCN(Cc2cccc(Oc3ccccc3)c2)CC1', 'P12-Ichikawa', 101),
  ('CN1C(=O)COc2c(C(=O)NC3CN4CCC3CC4)cc(Cl)cc21 (stereo not drawn)', 'P12-Ichikawa', 107),
  ('CCOc1ccccc1OCCNC(C)Cc1ccc(OC)c([S+](N)(=O)[O-])c1 (stereo not drawn)', 'P12-Ichikawa', 104),
  ('COc1ccc2cccc(CCNC(C)=O)c2c1', 'P12-Ichikawa', 100),
  ('C[Se]CCC(N)C(=O)O (stereo not drawn)', 'P12-Ichikawa', 86.3),
  ('CC1=CC2=C(O1)C(=C3OC(=O)\C=C(C)/C3=C2)C', 'P12-Ichikawa', 116),
  ('COc1ccc(-c2nc3cc(C4=NNC(=O)CC4C)ccc3[nH]2)cc1 (stereo not drawn)', 'P12-Ichikawa', 105);

---

tested on: SEM cells; assay: cell viability relative to DMSO control; higher = less cytotoxic; settings: RPMI 5 mM glucose + 10% FBS; 48 h; 5.12 µM
Form field: cell viability (one value per entry).
readout_type: cell viability

INSERT INTO measurements (compound, readout_type, observed) VALUES
  ('CC(C)[C@@H](N(CCCN)C(=O)C1=CC=C(C)C=C1)C/2=C(\CC3=CC=CC=C3)C(=O)C4=C(O2)C=C(Cl)C=C4', 'cell viability', '27.9%'),
  ('O=P(O)(O)C(O)(Cc1cccnc1)P(=O)(O)[O][Na] (stereo not drawn)', 'cell viability', '110%'),
  ('CCc1cc(/C(C)=N/OCc2ccc(C3CCCCC3)c(C(F)(F)F)c2)ccc1CN1CC(C(=O)O)C1', 'cell viability', '96.2%'),
  ('CC(C)(Cc1ccc2ccccc2c1)NC[C@@H](O)COc1cccc(Cl)c1C#N', 'cell viability', '86%'),
  ('NC/1=N/C(=O)N(/C=C1)[C@H]2CC[C@@H](CO)O2', 'cell viability', '110%'),
  ('CC1(C)CC(=O)c2c(C(F)(F)F)nn(-c3ccc(C(N)=O)c(NC4CCC(OC(=O)CN)CC4)c3)c2C1 (stereo not drawn)', 'cell viability', '18.4%'),
  ('CNC(=O)c1cc(Oc2ccc(NC(=O)Nc3cc(C(C)(C)C)nn3-c3ccc4ncccc4c3)c(F)c2)ccn1', 'cell viability', '50.5%'),
  ('Cc1ccc(F)c(NC(=O)Nc2ccc(-c3cccc4[nH]nc(N)c34)cc2)c1', 'cell viability', '48.8%'),
  ('CN(C)c1nc(N(C)C)nc(N(C)C)n1', 'cell viability', '90.1%'),
  ('C[C@H]1CCC/C=C/C2C[C@H](O)C[C@H]2[C@H](O)/C=C/C(=O)O1 (stereo partly drawn)', 'cell viability', '3.32%'),
  ('NC\1=N\C(=O)N(\C=N1)[C@H]2C[C@H](O)[C@@H](CO)O2', 'cell viability', '32.2%'),
  ('CC1=C(C)C2=C(S1)[N]3C(=NN=C3[C@H](CC(=O)OC(C)(C)C)/N=C2/C4=CC=C(Cl)C=C4)C', 'cell viability', '7.27%'),
  ('CCN(CC)CCOC1=CC=C(NC2=NC=C3\C=C(/C(=O)N(C)C3=N2)C4=C(Cl)C=CC=C4Cl)C=C1', 'cell viability', '11.7%'),
  ('OC1=C(C=CC=C1)C2=CC=C(C=C2)C3=CSC4=C3C(=C(/C#N)C(=O)N4)/O', 'cell viability', '87.4%'),
  ('CNC(=O)c1c(F)cccc1Nc1nc(Nc2cc3c(cc2OC)CCN3C(=O)CN(C)C)nc2[nH]ccc12', 'cell viability', '13.5%'),
  ('CC(C)(C)C1=NC2=C([NH]1)C3=CC=C(F)C=C3C4=C2\C=C/NC4=O', 'cell viability', '37.2%'),
  ('CN1[C@@H]2CC(O)C[C@H]1[C@@H]1O[C@@H]12 (stereo partly drawn)', 'cell viability', '115%'),
  ('CCOP(=O)(OCC)C(C)NC(=O)N(CCCl)N=O (stereo not drawn)', 'cell viability', '87.1%'),
  ('CCCn1c(=O)c2[nH]c(-c3cnn(Cc4cccc(C(F)(F)F)c4)c3)nc2n(CC)c1=O', 'cell viability', '116%'),
  ('NC12CC3CC(CC(C3)C1)C2', 'cell viability', '89%'),
  ('CN(C)C(=O)COC(=O)Cc1ccc(OC(=O)c2ccc(NC(=N)N)cc2)cc1', 'cell viability', '114%'),
  ('CN(C)CCC=C1C2=C(C=CC=C2)\C=C/C3=C1C=CC=C3', 'cell viability', '102%'),
  ('Cn1c(=O)c2c(ncn2CC(O)CO)n(C)c1=O (stereo not drawn)', 'cell viability', '111%');
